// provenance: PubChem BioAssay (NCI)

EXPERIMENT DESCRIPTION: NCI Yeast Anticancer Drug Screen. Data for the rad50 strain (AID 155);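 note: 0% = growth of vehicle-only cultures of the same strain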
CONDITION PARAMETERS: S. cerevisiae rad50 strain growth inhibition; at 50.0 µM; active compounds read high
Method: Growth inhibition of yeast strains with defined genetic alterations is measured as a screen for potential anti-cancer activity. Selected strains with alterations in DNA damage repair or cell cycle control were exposed to compounds and growth inhibition was measured relative to vehicle treated controls. The strain used in this assay is rad50
Compounds without any hit were thinned out: in the full panel of roughly 79,000, 15% have a hit.
Listed next: entries and their corresponding growth inhibition.
Answer with a number only, understood to be in %.

Please review the following examples before continuing.
[[record]]
compound = "CNn1c(C)n[nH]c1=O"
experimental_endpoint = "growth inhibition"
observed_value = 4.95

[[record]]
compound = "COc1cc2ccc(=O)oc2cc1O"
experimental_endpoint = "growth inhibition"
observed_value = 14.6

[[record]]
compound = "COC1=C(OC)C(=O)C2=C(OCO2)C1=O"
experimental_endpoint = "growth inhibition"
observed_value = -1.05


Turning now to a further compound:
Give growth inhibition for the following compound: N#Cc1ccccc1NC(=O)C(=O)C1NC(=S)NC1=O (configuration not stated)
15.4

* * *

EXPERIMENT DESCRIPTION: NCI Yeast Anticancer Drug Screen. Data for the mec2-1 strain (AID 157)
CONDITION PARAMETERS: S. cerevisiae mec2-1 strain, at 50.0 µM, active compounds read high
About 79,000 compounds went through this panel and 15% of them were active in at least one assay; those are over-represented in the sample as a whole. Active and inactive are the calls of the source. No stated cut-off is given here; in the data, active means growth inhibition above about 70%; inactive means the rest.
EXPERIMENTAL ENDPOINT: growth inhibition

[[record]]
compound = "COC(=O)C1(CC(=O)c2ccncc2)NC(=S)NC(=O)C1C#N (stereo not drawn)"
experimental_endpoint = "growth inhibition"
observed_value = "-11.8% (inactive)"

[[record]]
compound = "CN(C)c1ccc(/C=c2\\sc3nc4ccccc4n3c2=O)cc1"
experimental_endpoint = "growth inhibition"
observed_value = "-32.3% (inactive)"

[[record]]
compound = "CCOC(CN(C)C)OCC"
experimental_endpoint = "growth inhibition"
observed_value = "6.95% (inactive)"


Give growth inhibition for the following compound: COc1cc2c3c(c1)[nH]c(=S)n3C(=O)C(c1ccccc1)S2 (stereo not drawn)
5.8% (inactive)

Give growth inhibition for the following compound: COc1cc(O)c(C(=O)C2Cc3ccccc32)c(OC)c1 (stereo not drawn)
12.5% (inactive)

Give growth inhibition for the following compound: "C=CCCNC(=S)S"
11.7% (inactive)

Give growth inhibition for the following compound: "C=CCCCCCCCCC(=O)Nc1cc(Cl)ccc1C"
-5% (inactive)

Give growth inhibition for the following compound: CC(C)/C=C1\CCC(CN2CCCC2)C1=O (stereo not drawn)
34.6% (inactive)

Give growth inhibition for the following compound: CCCCCCN(C(=O)Oc1ccccc1)C(C#N)c1ccccc1 (stereo not drawn)
5.55% (inactive)

* * *

EXPERIMENT DESCRIPTION: NCI Yeast Anticancer Drug Screen. Data for the mlh1 rad18 strain (AID 175)
CONDITION PARAMETERS: S. cerevisiae mlh1 rad18 strain growth inhibition; at 50.0 µM; active compounds read high
This is part of a sample that, as a whole, favours compounds with a hit. Of some 79,000 tested, about 15% had one in any assay.
EXPERIMENTAL ENDPOINT: growth inhibition (%)
Answer with a number only, understood to be in %.

Give growth inhibition for the following molecule: "CC(=O)c1ccc(O)c(CN(C2CCCCC2)C2CCCCC2)c1O"
4.5

Give growth inhibition for the following molecule: OC1CCSc2ccccc21 (centres undefined)
23.2

Give growth inhibition for the following molecule: "CCOC(=O)c1cc(NC(C)=O)cn1C"
16.4

Give growth inhibition for the following molecule: "CC(C)S(=O)(=O)/C=C(\I)c1ccccc1"
-11.4

Give growth inhibition for the following molecule: "NCCn1ccnc1"
1.4

Give growth inhibition for the following molecule: NC1C2C3C=CC(C3)C12 (centres undefined)
8.95

Give growth inhibition for the following molecule: "Clc1ccc(-c2ccncc2)cc1"
5.7

Give growth inhibition for the following molecule: "CCNC(=S)NCCc1c[nH]c2ccccc12"
-36.6

Give growth inhibition for the following molecule: "Nc1ccc(Nc2ccc([N+](=O)[O-])cc2S(=O)(=O)O)cc1"
10.8

* * *

EXPERIMENT DESCRIPTION: NCI Yeast Anticancer Drug Screen. Data for the mec2-1 strain (AID 157)
CONDITION PARAMETERS: S. cerevisiae mec2-1 strain, at 50.0 µM, active compounds read high
This is part of a sample that, as a whole, favours compounds with a hit. Of some 79,000 tested, about 15% had one in any assay.
Listed next: entries and their corresponding growth inhibition.
Answer with a number only, understood to be in %.

[[record]]
molecule = "CC1C2=C(CC(C)(C)CC2=O)OC2=C1C(=O)CC(C)(C)C2"
observed_value = -7.9

[[record]]
molecule = "Cc1cc(N)ccc1[N+](=O)[O-]"
observed_value = 31

[[record]]
molecule = "COc1c(C)c(OC)c(C(=O)CC(C)C)c(OC)c1C"
observed_value = 5.05

[[record]]
molecule = "Cc1c(Cl)cccc1NC(=O)C(=O)C1C(=O)CC(C)(C)CC1=O"
observed_value = 6.8

[[record]]
molecule = "COC(=O)C(C)(C)N=CN(C)C"
observed_value = 13.1

[[record]]
molecule = "CC(C)(C)CC(C)(C)c1ccc(OCCOc2ccc(S(=O)(=O)O)cc2[N+](=O)[O-])cc1"
observed_value = 30.9


Turning now to a further molecule:
Give growth inhibition for the following molecule: "COc1cc(C(=O)C/C(CCCC(=O)Nc2ccccc2[N+](=O)[O-])=N/NC(=O)c2cc3ccccc3cc2O)ccc1O"
28.1

* * *

Listed next: entries and their corresponding growth inhibition.
EXPERIMENT DESCRIPTION: NCI Yeast Anticancer Drug Screen. Data for the rad50 strain (AID 155);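 note: 0% = growth of vehicle-only cultures of the same strain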
CONDITION PARAMETERS: S. cerevisiae rad50 strain growth inhibition; at 50.0 µM; active compounds read high
This is part of a sample that, as a whole, favours compounds with a hit. Of some 79,000 tested, about 15% had one in any assay.
Answer with a number only, understood to be in %.

[[record]]
compound = "CC(C)(C)N(OC(=O)c1ccccc1)C(=O)c1ccccc1"
observed_value = 3.25

[[record]]
compound = "COC(=O)/C=C/C(=O)OC"
observed_value = 9.75

[[record]]
compound = "COC(=O)C1(CCSc2ccccc2)CCCC1=O (configuration not stated)"
observed_value = 29.3


Give growth inhibition for the following compound: "Cc1noc2c1NC(=O)OCC2"
2.9

Give growth inhibition for the following compound: "COC(=O)C12c3ccccc3C(c3ccccc31)c1c(N=O)ccc(NO)c12"
99.2

Give growth inhibition for the following compound: "O=C(COc1ccc(Cl)cc1Cl)Nc1ccc(N=Nc2ccccc2)cc1"
-0.5

Give growth inhibition for the following compound: "N#CCCN(N)S(=O)(=O)c1ccccc1"
3.7

Give growth inhibition for the following compound: "Cn1ncnc1CCc1ccccc1"
-10.3

Give growth inhibition for the following compound: C=CCC12CC(COc3ccccc3C(N)=O)OC1=Nc1ccccc1NC2=O (configuration not stated)
0.55

Give growth inhibition for the following compound: "NC(N)=N/N=C/c1oc(-c2ccc(S(=O)(=O)O)o2)c(-c2ccc(S(=O)(=O)O)o2)c1[N+](=O)[O-]"
-21.4

Give growth inhibition for the following compound: "FC(F)(F)c1cccc(-c2nc3nc(Cl)c(Cl)nc3[nH]2)c1"
15.1

Give growth inhibition for the following compound: "Cc1ccccc1/C=N/Nc1ccc([N+](=O)[O-])cc1[N+](=O)[O-]"
-2.45

* * *

EXPERIMENT DESCRIPTION: NCI Yeast Anticancer Drug Screen. Data for the bub3 strain (AID 167)
CONDITION PARAMETERS: S. cerevisiae bub3 mutant strain, at 50.0 µM
This is part of a sample that, as a whole, favours compounds with a hit. Of some 79,000 tested, about 15% had one in any assay. Activity calls are given as the source filed them. Rule as the data show it: active = growth inhibition above about 70%; inactive = the rest.
Mark one answer only. Choices: TRUE for active, FALSE for inactive

Please review the entries below; each comes with its answer.
[[record]]
compound = "COc1ccccc1-c1ccc([N+](=O)[O-])cc1[N+](=O)[O-]"
class_assignment = "FALSE"

[[record]]
compound = "CC(C)=CCCc1ccc2c(c1)C(=O)c1cc3c(cc1C2=O)OCO3"
class_assignment = "FALSE"

[[record]]
compound = "CCCCC(=O)CCCCCCCCC(=O)CCCC"
class_assignment = "FALSE"

[[record]]
compound = "O=C1c2ccccc2-c2ccc(N3C(=O)C=CC3=O)cc21"
class_assignment = "TRUE"

[[record]]
compound = "C1CSC(SCCCSC2SCCCS2)SC1"
class_assignment = "FALSE"

[[record]]
compound = "COc1cccc2c(=O)oc(-c3ccc(C(C)(C)C)cc3)nc12"
class_assignment = "FALSE"

[[record]]
compound = "O=C(NCCCN1CCCCCC1)C(c1ccccc1)C1CCCCC1 (centres undefined)"
class_assignment = "FALSE"

[[record]]
compound = "O=C1c2ccccc2OCC1/C=N/O (centres undefined)"
class_assignment = "FALSE"

[[record]]
compound = "O=C1OCC(CN2CCC(n3c(=O)[nH]c4ccccc43)CC2)=C1c1ccccc1"
class_assignment = "FALSE"

[[record]]
compound = "COc1ccc(-c2csc(N)n2)cc1OC"
class_assignment = "FALSE"


Query: recorded result category for CCOC(=O)NOC1CCCCO1 (centres undefined) in this test
FALSE

Query: recorded result category for "O=S1(=O)C(c2ccc(F)cc2)=C(O)c2cc3ccccc3nc21" in this test
FALSE

Query: recorded result category for "Cc1ccc(S/C=C/C(=O)Nc2ccccc2)cc1" in this test
FALSE
